The entries below are paired with their reported solubility (mole fraction).
Conditions: in ethanol, 308.15 K
RESULT TYPE: solubility (mole fraction)

[
  {
    "COMPOUND STRING": "O=C(O)CCCCCC(=O)O",
    "RESULT TYPE": "solubility (mole fraction)",
    "REPORTED RESULT": 0.15
  },
  {
    "COMPOUND STRING": "O=C(O)CCCC(=O)O",
    "RESULT TYPE": "solubility (mole fraction)",
    "REPORTED RESULT": 0.228
  },
  {
    "COMPOUND STRING": "O=C(O)CCCCCCC(=O)O",
    "RESULT TYPE": "solubility (mole fraction)",
    "REPORTED RESULT": 0.0454
  },
  {
    "COMPOUND STRING": "O=C(O)CCCCCCCC(=O)O",
    "RESULT TYPE": "solubility (mole fraction)",
    "REPORTED RESULT": 0.102
  }
]

This collection of values is drawn from BigSolDB 2.1.
